From: ChEMBL document CHEMBL3352044

Target: Ubiquitin carboxyl-terminal hydrolase 1/WD repeat-containing protein 48 (Homo sapiens, UniProt O94782)
Sequence (O94782 whole entry): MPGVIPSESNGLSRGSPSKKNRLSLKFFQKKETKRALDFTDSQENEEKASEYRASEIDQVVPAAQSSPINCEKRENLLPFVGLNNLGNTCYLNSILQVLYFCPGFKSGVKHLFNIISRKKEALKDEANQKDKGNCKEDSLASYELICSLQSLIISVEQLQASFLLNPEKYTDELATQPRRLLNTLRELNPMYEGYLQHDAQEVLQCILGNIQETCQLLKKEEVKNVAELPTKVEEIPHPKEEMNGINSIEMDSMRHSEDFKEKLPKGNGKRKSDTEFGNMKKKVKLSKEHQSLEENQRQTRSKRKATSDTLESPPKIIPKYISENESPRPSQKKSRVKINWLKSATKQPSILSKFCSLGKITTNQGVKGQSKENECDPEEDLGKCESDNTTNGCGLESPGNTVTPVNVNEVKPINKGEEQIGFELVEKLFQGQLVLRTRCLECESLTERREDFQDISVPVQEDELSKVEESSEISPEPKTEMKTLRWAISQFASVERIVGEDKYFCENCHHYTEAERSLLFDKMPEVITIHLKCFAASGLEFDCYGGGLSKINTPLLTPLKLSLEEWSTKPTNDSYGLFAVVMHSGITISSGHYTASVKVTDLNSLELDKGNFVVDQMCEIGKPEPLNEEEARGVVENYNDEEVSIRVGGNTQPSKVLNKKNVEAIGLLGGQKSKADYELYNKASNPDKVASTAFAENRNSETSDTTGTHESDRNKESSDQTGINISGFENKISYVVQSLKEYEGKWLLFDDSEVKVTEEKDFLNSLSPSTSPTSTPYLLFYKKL
Sequence (Q8TAF3 whole entry, further chain): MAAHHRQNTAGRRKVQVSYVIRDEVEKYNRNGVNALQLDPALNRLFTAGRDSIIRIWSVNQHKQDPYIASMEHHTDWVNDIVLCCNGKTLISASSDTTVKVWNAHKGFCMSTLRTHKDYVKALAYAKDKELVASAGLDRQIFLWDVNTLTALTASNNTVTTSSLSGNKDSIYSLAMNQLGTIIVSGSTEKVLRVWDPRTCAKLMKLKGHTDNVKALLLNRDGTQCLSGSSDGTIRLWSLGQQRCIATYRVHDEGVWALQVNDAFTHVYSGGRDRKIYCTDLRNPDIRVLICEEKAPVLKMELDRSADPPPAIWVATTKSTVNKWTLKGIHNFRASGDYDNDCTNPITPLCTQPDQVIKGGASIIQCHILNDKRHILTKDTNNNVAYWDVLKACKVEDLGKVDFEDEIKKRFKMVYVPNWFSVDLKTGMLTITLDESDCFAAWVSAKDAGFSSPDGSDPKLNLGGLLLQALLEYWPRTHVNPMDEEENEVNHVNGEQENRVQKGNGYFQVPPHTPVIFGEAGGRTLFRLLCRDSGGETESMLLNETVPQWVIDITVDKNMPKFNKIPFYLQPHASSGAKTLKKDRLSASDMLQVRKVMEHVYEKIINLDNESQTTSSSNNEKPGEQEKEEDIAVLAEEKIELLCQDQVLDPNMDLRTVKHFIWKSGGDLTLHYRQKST
Examples of compounds with documented pIC50 follow.
Conceptually, pIC50 converts a concentration in mol/L into minus its log10.

These recorded examples may help you get a feel for the data.
{"Sample Smiles": "Cc1cnc(-c2ccccc2C(F)F)nc1NCc1ccc(-n2ccnn2)cc1", "pIC50": 6.09}
{"Sample Smiles": "FC(F)(F)c1ccccc1-c1nc(NCc2cccs2)c2ccccc2n1", "pIC50": 5.10}
{"Sample Smiles": "CC(C)c1ccccc1-c1nc(NCc2ccc(-c3cccnc3)cc2)c2nc[nH]c2n1", "pIC50": 6.92}
{"Sample Smiles": "Cc1cnc(-c2ccccc2C(C)C)nc1NCC1CCN(c2cnccn2)CC1", "pIC50": 6.85}

Recorded pIC50 (compound FC(F)(F)c1ccccc1-c1nc(NCc2ccccc2)c2ccccc2n1 ): 5.51

Recorded pIC50 (compound FC(F)(F)c1ccccc1-c1nc(NCc2ccc(Cl)c(Cl)c2)c2ccccc2n1 ): 4.98

Recorded pIC50 (compound Cc1cnc(-c2ccccc2C(C)C)nc1NCc1ccc(-c2nnn[nH]2)cc1 ): 5.23

Recorded pIC50 (compound Fc1ccc(CNc2nc(-c3ccccc3C(F)(F)F)nc3ccccc23)cc1 ): 5.47

Recorded pIC50 (compound COc1cnc(-c2ccccc2C(C)C)nc1NCc1ccc(-c2cccnc2)cc1 ): 7.15

Recorded pIC50 (compound Cc1cnc(-c2ccccc2C2CC2)nc1NCc1ccc(-c2cccnc2)cc1 ): 6.74

Recorded pIC50 (compound CC(C)c1ccccc1-c1nc2c(c(NCc3ccc(-c4cccnc4)cc3)n1)CNC2 ): 5.54

Recorded pIC50 (compound CC(C)c1ccccc1-c1nc(NCc2ccc(-c3cccnc3)cc2)c2cccn2n1 ): 6.59

Recorded pIC50 (compound CC(C)c1ccccc1-c1ncc(N(C)C)c(NCc2ccc(-c3cccnc3)cc2)n1 ): 6.72

Recorded pIC50 (compound O=[N+]([O-])c1ccccc1-c1nc(NCc2ccc(-c3cccnc3)cc2)c2ccccc2n1 ): 5.11

Recorded pIC50 (compound CC(C)c1ccccc1-c1nccc(NCc2ccc(-c3cccnc3)cc2)n1 ): 6.82

Recorded pIC50 (compound CC(C)c1ccccc1-c1nc(NCc2ccc(-c3cccnc3)cc2)c2occc2n1 ): 7.10
